# TARGET OR SYSTEM: D(1A) dopamine receptor (Homo sapiens) (UniProt P21728)
# Sequence (P21728 whole entry): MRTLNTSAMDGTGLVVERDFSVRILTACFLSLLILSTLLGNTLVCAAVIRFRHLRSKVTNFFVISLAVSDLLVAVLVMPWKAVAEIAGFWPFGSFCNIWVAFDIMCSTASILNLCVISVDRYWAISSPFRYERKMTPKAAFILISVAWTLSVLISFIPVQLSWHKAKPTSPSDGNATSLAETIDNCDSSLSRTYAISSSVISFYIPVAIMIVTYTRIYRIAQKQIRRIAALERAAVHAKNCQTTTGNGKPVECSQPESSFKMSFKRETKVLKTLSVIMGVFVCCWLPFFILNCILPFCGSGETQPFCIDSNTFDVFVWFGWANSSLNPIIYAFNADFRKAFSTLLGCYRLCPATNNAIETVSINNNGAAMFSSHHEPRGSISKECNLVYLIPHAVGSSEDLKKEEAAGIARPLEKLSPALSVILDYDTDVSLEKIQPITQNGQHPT
# CONDITION DESCRIPTION: Compound concentration 10 µM; call rule not given here
Labels: True for active, False for inactive

> print(dat)
                            molecule.smiles  label.class
1  NCCc1cn(S(=O)(=O)c2c(Cl)nc3sccn23)c2ccccc12        False
2  CCN(CC)CCCCC1CCN(CC(=O)N2c3ccccc3C(=O)Nc3cccnc32)CC1         True
3  COc1ccnc(N2CCC3(CCCN(Cc4c[nH]c5ccccc45)C3=O)CC2)n1        False
4  CNc1nc(NCc2ccc(NS(C)(=O)=O)cc2Cl)cc(-c2ccccn2)n1        False
5               Clc1ccc(CCCOCCCN2CCCCC2)cc1        False
6  COc1ccc(/C=C/CCCCOc2ccc(C(=O)c3cccc(C(=O)O)c3)cc2CCC(=O)O)cc1        False
